Tested on: nutsedge, yellow
METHOD SUMMARY: Test C preemergence
Format: in vivo, Cyperus esculentus
TEST PARAMETERS: preemergence, 31 g ai/ha; visual rating, scale 0 to 100 (0 no effect, 100 complete control), 13 to 15 days
If the reported Nutsedge, Yellow plant response rating equals or exceeds 20, assign satisfied. If not, assign not satisfied.

Enquiry: Does CCCc1cc(C(=O)NOCC)nn1Cc1ccnc(C(F)(F)F)c1 have a reported Nutsedge, Yellow plant response rating of at least 20?
Return: not satisfied

Enquiry: Does the compound CCc1cc(C(=O)NCC(F)(F)F)nn1Cc1ccnc(C(F)(F)F)c1 have recorded Nutsedge, Yellow plant response rating that is 20 or more?
Return: satisfied

Enquiry: Textbook exercise: given the entry CCNC(=O)c1cc(CC)n(Cc2ccnc(OC(F)F)c2)n1 , state whether its Nutsedge, Yellow plant response rating is greater than or equal to 20.
Return: satisfied

Enquiry: Kindly determine if Nutsedge, Yellow plant response rating recorded for CCCc1cc(C(=O)NCC)nn1Cc1cc(C(F)(F)F)nn1C is above or exactly 20.
Return: not satisfied

Enquiry: Could you verify whether the entry CCCc1cc(C(=O)NCC(F)(F)F)nn1Cc1ccnc(C(F)(F)F)c1 shows Nutsedge, Yellow plant response rating of no less than 20?
Return: satisfied

Enquiry: Reported Nutsedge, Yellow plant response rating reaches at least 20 for CCONC(=O)c1cc(CC)n(Cc2cc(C(F)(F)F)no2)n1 ?
Return: not satisfied

----------
Test system: pigweed
METHOD SUMMARY: Test A postemergence
Format: in vivo, Amaranthus retroflexus
TEST PARAMETERS: postemergence, 125 g ai/ha, about 10 days, visual rating on 0 to 100 scale (0 no effect, 100 complete control)
Text: […]
QUANTITY NAME: Pigweed plant response rating
Output spec: single numeric token, no unit.

Enquiry: Supply measured Pigweed plant response rating of CCNC(=O)c1cc(CCCl)n(Cc2ccnc(C(F)(F)F)c2)n1 [Compound 179] in your reply.
Return: 100

Enquiry: Dear colleague, please send me the reported Pigweed plant response rating for CCCCc1cc(C(=O)NCC(F)(F)F)nn1Cc1ccnc(C(F)(F)F)c1 [Compound 148] when you can.
Return: 90

Enquiry: Report measured Pigweed plant response rating; entry is CCONC(=O)c1cc(C)n(Cc2cccc(OC(F)(F)F)c2)n1 [Compound 73]
Return: 70

Enquiry: Read the entry CCCNC(=O)c1cc(CC)n(Cc2cc(OC(F)F)nn2C)n1 [Compound 134] and write its reported Pigweed plant response rating.
Return: 40

----------
Assignment: determine reported Crabgrass, Large plant response rating for the given molecules.
Tested on: crabgrass, large
METHOD SUMMARY: Test A postemergence
Assay type: in vivo, Digitaria sanguinalis
TEST PARAMETERS: Postemergence, 500 g ai/ha; visual rating after approx. 10 days, 0 to 100 scale (0 no effect, 100 complete control)
Format: numeric value only, no unit, no commentary.

Enquiry: Look up and state reported Crabgrass, Large plant response rating for CCc1cc(C(=O)NC(C)C)nn1Cc1ccnc(C(F)(F)F)c1
Return: 100

Enquiry: Please indicate Crabgrass, Large plant response rating recorded for CNC(=O)c1cc(C)n(Cc2cccc(OC(F)(F)F)c2)n1
Return: 10

Enquiry: Query Crabgrass, Large plant response rating for Cc1cc(C(=O)NCC(F)(F)C(F)(F)F)nn1Cc1cccc(C(F)(F)F)c1
Return: 20

Enquiry: Consider the molecule CCc1cc(C(=O)NCC(F)(F)F)nn1Cc1ccnc(C(F)(F)F)c1 . State its measured Crabgrass, Large plant response rating.
Return: 100

Enquiry: Fill in reported Crabgrass, Large plant response rating for this entry: CCONC(=O)c1cc(C)n(Cc2cccc(OC(F)(F)F)c2)n1
Return: 60

Enquiry: Retrieve Crabgrass, Large plant response rating measured for Cc1cc(C(=O)NC2CC2)nn1Cc1cccc(OC(F)(F)F)c1 and print it.
Return: 80

Enquiry: Provide one value: measured Crabgrass, Large plant response rating of CCc1cc(C(=O)NC2CC2)nn1Cc1cc(C(F)(F)F)nn1CC
Return: 90
